Data provenance: patent EP1614683B1

System: VEGF dependent retinal neovascularization
test-details: Neonatal rat model of retinopathy of prematurity
Assay type: in vivo
condition-description: Model ROP, intravitreal, 1 mg/ml, vehicle PEG/water 70:30
% Inhibition listing for selected molecules.
Enter your answer as a number in %; do not include the unit.

molecule: O=C(Nc1cccc(C(=O)c2ccc3c(/C=N/n4cccc4)n[nH]c3c2)c1)c1ccccc1 [Example 45(b)]
% Inhibition (%): 25

Request: // fetch % Inhibition given entry O=C(c1cccc(NC(=O)c2cccc3[nH]ccc23)c1)c1ccc2c(/C=C/c3ccccn3)n[nH]c2c1 [41 (d)]
Result: 0

Request: // fetch % Inhibition given entry CC(=O)c1cccc(C(=O)Nc2cccc(N(C)c3ccc4c(/C=C/c5ccc6c(c5)OCO6)n[nH]c4c3)c2)c1 [16(e)]
Result: 16

Request: // fetch % Inhibition given entry C/C=C/C(=O)Nc1cccc(C(=O)c2ccc3c(/C=C/c4ccccn4)n[nH]c3c2)c1 [41 (c)]
Result: 16

Request: // fetch % Inhibition given entry O=C(Nc1cccc(C(=O)c2ccc3c(/C=C/c4ccccn4)n[nH]c3c2)c1)c1ccccc1 [Reference Example 42(a)]
Result: 1
